Data provenance is paper PMC10397247.

Target: T1, 4H3782-bN
T1 chain: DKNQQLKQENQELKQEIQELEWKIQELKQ
Experiment: two-hybrid library CCNG1;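 note: natural log of median RNA to DNA barcode read ratio; higher means stronger binding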
Endpoint Name: interaction score
Returns: the value as a bare number; no unit string appended.

DEIQQLEQKIQELKQENQELEWEIQELKQ [4H338-bN]; -0.966
DENQQLEQKIQELKQENQELKWEIQELEQ [4H1369-bN]; -1.06

Identify measured interaction score corresponding to DKIQQLKQENQELEQKIQELKWEIQELEQ [4H2729-bN]
-0.911
